Source of measurements: paper PMC10071561

- TARGET_UNDER_TEST: hBRR2 (spliceosomal RNA helicase BRR2) (Homo sapiens)
- EXPERIMENT: crystal soaking, X-ray structure ([…] Å); also U4/U6 unwinding inhibition
- Assay type: biochemical
- Design: gene SNRNP200; hBRR2T1 (residues 395-2129), N-terminal His tag not cleaved, baculovirus/High Five insect cells; isolated, without hJab1deltaC, in U4*/U6 unwinding assay
ATTRIBUTE_MEASURED: IC50

Any idea what IC50 was measured for `O=S(=O)(NO)c1ccccc1` ? > 90 µM

* * *

- TARGET_UNDER_TEST: hBRR2 (spliceosomal RNA helicase BRR2) (Homo sapiens, UniProt O75643)
- Sequence (O75643 395-2129): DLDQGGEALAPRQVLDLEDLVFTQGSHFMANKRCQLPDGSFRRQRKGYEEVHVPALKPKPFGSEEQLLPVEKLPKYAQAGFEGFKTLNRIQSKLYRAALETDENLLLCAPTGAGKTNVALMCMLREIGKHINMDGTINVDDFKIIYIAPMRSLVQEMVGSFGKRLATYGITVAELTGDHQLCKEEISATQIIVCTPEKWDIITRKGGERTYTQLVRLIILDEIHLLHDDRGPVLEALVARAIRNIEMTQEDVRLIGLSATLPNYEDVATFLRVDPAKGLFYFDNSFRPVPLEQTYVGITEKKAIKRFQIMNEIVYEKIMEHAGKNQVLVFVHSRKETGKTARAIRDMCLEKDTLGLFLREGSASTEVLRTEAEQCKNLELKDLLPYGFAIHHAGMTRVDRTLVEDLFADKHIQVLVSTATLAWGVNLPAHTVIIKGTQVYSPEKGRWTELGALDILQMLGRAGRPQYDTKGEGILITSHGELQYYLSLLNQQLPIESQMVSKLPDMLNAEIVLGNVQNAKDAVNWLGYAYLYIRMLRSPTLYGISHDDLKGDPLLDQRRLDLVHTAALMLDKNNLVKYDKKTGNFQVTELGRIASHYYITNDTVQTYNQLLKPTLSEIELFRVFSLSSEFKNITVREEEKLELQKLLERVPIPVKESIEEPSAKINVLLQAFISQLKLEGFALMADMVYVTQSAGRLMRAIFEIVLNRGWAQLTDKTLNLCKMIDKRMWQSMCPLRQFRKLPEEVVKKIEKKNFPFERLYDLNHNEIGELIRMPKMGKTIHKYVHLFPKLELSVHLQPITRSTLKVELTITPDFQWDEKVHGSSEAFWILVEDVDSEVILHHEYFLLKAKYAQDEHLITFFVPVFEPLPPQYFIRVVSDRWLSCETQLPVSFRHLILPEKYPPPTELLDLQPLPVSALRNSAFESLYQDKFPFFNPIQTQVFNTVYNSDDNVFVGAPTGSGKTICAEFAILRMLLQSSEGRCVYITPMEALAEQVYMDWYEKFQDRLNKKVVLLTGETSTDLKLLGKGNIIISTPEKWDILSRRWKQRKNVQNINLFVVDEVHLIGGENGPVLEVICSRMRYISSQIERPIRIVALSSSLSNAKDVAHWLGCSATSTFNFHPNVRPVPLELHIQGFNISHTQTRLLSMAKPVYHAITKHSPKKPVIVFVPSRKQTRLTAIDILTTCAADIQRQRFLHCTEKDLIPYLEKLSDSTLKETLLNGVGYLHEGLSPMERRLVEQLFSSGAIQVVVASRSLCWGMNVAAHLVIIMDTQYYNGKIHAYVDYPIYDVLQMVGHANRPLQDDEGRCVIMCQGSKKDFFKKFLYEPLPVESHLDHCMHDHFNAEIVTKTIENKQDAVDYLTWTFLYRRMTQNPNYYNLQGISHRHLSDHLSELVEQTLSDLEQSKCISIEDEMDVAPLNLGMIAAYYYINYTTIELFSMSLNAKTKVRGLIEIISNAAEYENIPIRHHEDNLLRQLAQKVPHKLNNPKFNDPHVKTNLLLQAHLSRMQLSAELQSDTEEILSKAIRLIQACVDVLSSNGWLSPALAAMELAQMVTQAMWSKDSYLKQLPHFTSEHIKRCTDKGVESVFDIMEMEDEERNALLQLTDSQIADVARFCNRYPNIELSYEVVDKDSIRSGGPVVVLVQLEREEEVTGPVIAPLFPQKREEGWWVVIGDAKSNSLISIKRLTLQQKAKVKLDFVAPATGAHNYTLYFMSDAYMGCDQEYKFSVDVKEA
- EXPERIMENT: crystal soaking, X-ray structure ([…] Å); also U4/U6 unwinding inhibition
- Format: biochemical
- Set-up: gene SNRNP200; hBRR2T1 (residues 395-2129), N-terminal His tag not cleaved, baculovirus/High Five insect cells; isolated, without hJab1deltaC, in U4*/U6 unwinding assay
ATTRIBUTE_MEASURED: IC50

Need IC50 of O=S(=O)(N=C(S)S)c1ccccc1 [compound 50] , thanks. > 1 mM
